test: Analysis of active substance: preservative concentration before and after storage in VI-containing polymer solution; format: physicochemical; settings: in Polymer P9; storage 14 d at 40° C.
Response key: class 1 means active-substance concentration, 14 d, 40° C. >= 200 ppm; class 0 means active-substance concentration, 14 d, 40° C. < 200 ppm.

CCCCCCCCn1sccc1=O
class 0

Does the molecule Cn1sc(Cl)cc1=O have recorded active-substance concentration, 14 d, 40° C. that is 200 ppm or more?
class 0

Does the molecule Cn1sccc1=O have recorded active-substance concentration, 14 d, 40° C. that is 200 ppm or more?
class 0

Does the molecule CCCCCCCCCCCCCCCC[N+](C)(C)Cc1ccccc1.[Cl-] [Polymer 16-BAC, cetylalkonium chloride] have recorded active-substance concentration, 14 d, 40° C. that is 200 ppm or more?
class 1

Does the molecule CCCCCCCCCC[N+](C)(C)CCCCCCCCCC.[Cl-] [DDAC, didecyldimethylammonium chloride] have recorded active-substance concentration, 14 d, 40° C. that is 200 ppm or more?
class 1

Does the molecule CCCCCCCCn1sc(Cl)c(Cl)c1=O have recorded active-substance concentration, 14 d, 40° C. that is 200 ppm or more?
class 1

Does the molecule O=c1[nH]sc2ccccc12 have recorded active-substance concentration, 14 d, 40° C. that is 200 ppm or more?
class 0

Does the molecule CCCCNC(=O)OCC#CI [Iodopropynyl butyl carbamate, iodopropynyl butyl carbamate] have recorded active-substance concentration, 14 d, 40° C. that is 200 ppm or more?
class 0

###

assay: Analysis of active substance: preservative concentration before and after storage in VI-containing polymer solution; assay type: physicochemical; settings: in Polymer P3; storage 14 d at 40° C.
# active-substance concentration, 14 d, 40° C. annotations
Write the answer as a number in ppm, unit excluded.

Field: example entries. Status: answers known.
CCCCCCCCn1sc(Cl)c(Cl)c1=O
232
CCCCCCCCCCCCCCCC[N+](C)(C)Cc1ccccc1.[Cl-] [Polymer 16-BAC, cetylalkonium chloride]
975
Cn1sccc1=O
171

Turning now to a further record.
Give me measured active-substance concentration, 14 d, 40° C., please, for this molecule: CCCCNC(=O)OCC#CI [Iodopropynyl butyl carbamate, iodopropynyl butyl carbamate]
221

###

test: Physical stability; visual assessment (color, turbidity, phase separation); assay type: physicochemical; parameters: key: ++: no discernible change with respect to color, turbidity or phase separation; +: marginal change in color number, somewhat increased Tyndall effect but no turbidity; 0: easily discernible increase in color number and moderate turbidity−no phase separation; −: turbidity and change in color number readily discernible by visual assessment; −−: strong color change with strong turbidity and incipient phase separation; conditions: Polymer P3 with stabilizer
PROPERTY LABEL: Physical stability, 60 d 40° C.*

Field: example entries. Status: answers known.
O=c1[nH]sc2ccccc12 [BIT, 1,2-benzisothiazolin-3-one]
−
CCCCCCCCCC[N+](C)(C)CCCCCCCCCC.[Cl-] [DDAC, didecyldimethylammonium chloride]
++
CCCCCCCCCCCCCCCC[n+]1ccccc1 [CPC, cetylpyridinium chloride]
+
CCCCCCCCn1sc(Cl)c(Cl)c1=O [DCOIT, dichloroctylisothiazolinone]
−−

Give me measured Physical stability, 60 d 40° C.*, please, for this molecule: CCCCCCCCn1sccc1=O [OIT, octylisothiazolinone]
−−

Give me measured Physical stability, 60 d 40° C.*, please, for this molecule: CCCCNC(=O)OCC#CI [Iodopropynyl butyl carbamate, iodopropynyl butyl carbamate]
−

Give me measured Physical stability, 60 d 40° C.*, please, for this molecule: Cn1sccc1=O [MIT, methyl-4-isothiazolin-3-one]
−

Give me measured Physical stability, 60 d 40° C.*, please, for this molecule: CCCCCCCCCCCCCCCC[N+](C)(C)Cc1ccccc1.[Cl-] [Polymer 16-BAC, cetylalkonium chloride]
+

Give me measured Physical stability, 60 d 40° C.*, please, for this molecule: Cn1sc(Cl)cc1=O [CMIT, 5-chloro-N-methylisothiazolin-3-one]
−
